# system under test: T1, ZFP SBS#761 (synthetic)
# T1 chain: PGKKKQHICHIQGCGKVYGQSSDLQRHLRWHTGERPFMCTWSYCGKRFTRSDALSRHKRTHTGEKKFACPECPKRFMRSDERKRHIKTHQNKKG
# experiment: EMSA
# condition notes: tags: MBP fusion
parameter: pKd
// returns pKd (minus log10 of molar concentration), number only

// pKd lookup, key: GCGGTGGCTC (dsDNA) DNA 1: GCGGTGGCTC DNA 2: GAGCCACCGC 8.22

All figures here come from patent US20030068675.
